tested on: BA/F3 cells expressing EML4-ALK fusion protein v1; assay: Growth inhibitory activity against EML4-ALK fusion protein-dependent cells; type: cell-based, mouse; settings: Mus musculus, BaF3, 48 h, growth of EML4-ALK fusion protein v1-expressing BA/F3 cells, cultured 2 days
Value Kind: IC50 (nM)
Reply with just the number (in nM).

Inquiry: Specify reported IC50 for the compound shown: CCc1nc(C(N)=O)c(Nc2ccc(N3CCN(C)CC3)c(C)c2)nc1N[C@H]1CC[C@@](C)(O)CC1
Reply text: 6.5

Inquiry: Specify reported IC50 for the compound shown: CCc1nc(C(N)=O)c(Nc2ccc(N3CCN(C)CC3)c(F)c2)nc1NC1CCOCC1
Reply text: 39

Inquiry: Specify reported IC50 for the compound shown: CCc1nc(C(N)=O)c(Nc2ccc(N3CCC(N4CCN(C)CC4)CC3)c(OC)c2)nc1NC1CCOCC1
Reply text: 5.7

Inquiry: Specify reported IC50 for the compound shown: NC(=O)c1cnc(N[C@@H]2CCCC[C@@H]2N)nc1Nc1ccc(-c2ccc(N3CCOCC3)cc2)cc1 (racemic) [Compound X, reference compound]
Reply text: 821

###

biological target: EML4-ALK fusion protein v1 (Homo sapiens (Human), UniProt Q9UM73); test: Inhibitory activity against the kinase activity of EML4-ALK fusion protein (HTRF KinEASE-TK); conditions: ATP 100 μM, reaction 1 hour
Sequence (Q9UM73 other isoform, or with tags, fused parts or gaps): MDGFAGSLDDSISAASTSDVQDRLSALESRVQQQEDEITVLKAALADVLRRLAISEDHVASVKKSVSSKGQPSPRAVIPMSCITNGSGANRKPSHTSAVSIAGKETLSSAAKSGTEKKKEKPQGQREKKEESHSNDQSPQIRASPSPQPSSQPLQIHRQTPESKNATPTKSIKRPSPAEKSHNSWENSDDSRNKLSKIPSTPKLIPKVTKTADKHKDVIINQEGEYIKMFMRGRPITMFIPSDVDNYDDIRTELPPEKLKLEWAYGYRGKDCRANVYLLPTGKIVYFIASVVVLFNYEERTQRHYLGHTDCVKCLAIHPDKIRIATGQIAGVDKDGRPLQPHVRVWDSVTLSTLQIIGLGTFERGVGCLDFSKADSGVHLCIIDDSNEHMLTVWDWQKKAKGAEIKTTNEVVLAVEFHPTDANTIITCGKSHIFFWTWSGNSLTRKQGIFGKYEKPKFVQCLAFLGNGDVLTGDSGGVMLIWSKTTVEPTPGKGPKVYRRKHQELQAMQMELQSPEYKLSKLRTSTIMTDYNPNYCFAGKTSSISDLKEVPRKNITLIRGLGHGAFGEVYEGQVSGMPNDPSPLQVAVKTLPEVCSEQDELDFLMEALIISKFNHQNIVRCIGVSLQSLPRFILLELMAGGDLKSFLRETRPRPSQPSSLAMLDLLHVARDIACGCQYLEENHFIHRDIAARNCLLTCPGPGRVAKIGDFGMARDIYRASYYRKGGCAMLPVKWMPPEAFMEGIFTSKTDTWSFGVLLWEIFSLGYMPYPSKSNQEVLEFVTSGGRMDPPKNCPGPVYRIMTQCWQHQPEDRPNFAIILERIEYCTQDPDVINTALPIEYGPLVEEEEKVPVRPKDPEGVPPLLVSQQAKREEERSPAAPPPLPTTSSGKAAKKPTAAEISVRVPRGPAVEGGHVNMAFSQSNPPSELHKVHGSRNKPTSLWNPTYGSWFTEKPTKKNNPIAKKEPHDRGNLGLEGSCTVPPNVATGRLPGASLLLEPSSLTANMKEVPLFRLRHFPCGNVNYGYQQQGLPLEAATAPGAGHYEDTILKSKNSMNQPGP
Value Kind: log10 of IC50 (log10 of the value in nM)
Please interpret these as log10 of IC50 where IC50 is in nM.

Inquiry: Specify reported log10 of IC50 for the compound shown: CCc1nc(C(N)=O)c(Nc2ccc(N3CCC(N4CCN(C)CC4)CC3)cc2)nc1N[C@H]1CC[C@H](O)CC1
Reply text: 0.45

Inquiry: Specify reported log10 of IC50 for the compound shown: CCc1nc(C(N)=O)c(Nc2ccc(N3CCC(N4CCN(C)CC4)CC3)c(C)c2)nc1N[C@H]1CC[C@@](C)(O)CC1
Reply text: -0.68

Inquiry: Specify reported log10 of IC50 for the compound shown: CCc1nc(C(N)=O)c(Nc2ccc(N3CCC(N4CCN(C)CC4)CC3)c(C)c2)nc1NC1CCC(O)(C(C)C)CC1 (stereo not drawn) [Example 494]
Reply text: 0.61

Inquiry: Specify reported log10 of IC50 for the compound shown: CCc1nc(C(N)=O)c(Nc2ccc(N3CCN(C)CC3)c(C)c2)nc1N[C@H]1CC[C@H](O)CC1
Reply text: -0.62

Inquiry: Specify reported log10 of IC50 for the compound shown: CCc1nc(C(N)=O)c(Nc2ccc(N3CCC(N4CCN(C)CC4)CC3)c(C)c2)nc1NC1CCC(O)(C(C)C)CC1 (stereo not drawn) [Example 493]
Reply text: 0.41

Inquiry: Specify reported log10 of IC50 for the compound shown: Cc1cc(Nc2nc(N[C@H]3CC[C@H](O)CC3)c(Cl)nc2C(N)=O)ccc1N1CCC(N2CCN(C)CC2)CC1
Reply text: 0.36

###

test system: BA/F3 cells expressing EML4-ALK fusion protein v1; assay: Growth inhibitory activity against EML4-ALK fusion protein-dependent cells; type: cell-based, mouse; conditions: growth of EML4-ALK fusion protein v1-expressing BA/F3 cells, cultured 2 days
Value Kind: IC50 (nM)
Reply with just the number (in nM).

Inquiry: Specify reported IC50 for the compound shown: CCc1nc(C(N)=O)c(Nc2ccc(N3CCC(N4CCN(C)CC4)CC3)c(C)c2)nc1NC1CCC(O)(CC)CC1 (stereo not drawn) [Example 491]
Reply text: 16

Inquiry: Specify reported IC50 for the compound shown: CCc1nc(C(N)=O)c(Nc2ccc(N3CCC(N4CCN(C)CC4)CC3)c(C)c2)nc1NC1CCC(O)(C(C)C)CC1 (stereo not drawn) [Example 493]
Reply text: 19

Inquiry: Specify reported IC50 for the compound shown: CCc1nc(C(N)=O)c(Nc2ccc(N3CCC(N4CCN(C)CC4)CC3)c(C)c2)nc1NC1CCC(O)(C(C)C)CC1 (stereo not drawn) [Example 494]
Reply text: 42
